target: HEK cells stably transfected with tetracycline inducible hNR1 and hNR2A (Homo sapiens, UniProt Q05586+Q12879); construct: expressed in transfected cells; host or cells: HEK cells, stably transfected, tetracycline/doxycycline inducible; assay: Assay 1: Cell-Based Assay, cytosolic calcium response to positive allosteric modulators (with 30 μM glycine and 300 nM L-glutamate, EC30); conditions: Table 2; cytosolic calcium response, with 30 μM glycine and 300 nM L-glutamate (EC30); — = no plateau was reached
Sequence (Q12879 23-1464, other chains not shown): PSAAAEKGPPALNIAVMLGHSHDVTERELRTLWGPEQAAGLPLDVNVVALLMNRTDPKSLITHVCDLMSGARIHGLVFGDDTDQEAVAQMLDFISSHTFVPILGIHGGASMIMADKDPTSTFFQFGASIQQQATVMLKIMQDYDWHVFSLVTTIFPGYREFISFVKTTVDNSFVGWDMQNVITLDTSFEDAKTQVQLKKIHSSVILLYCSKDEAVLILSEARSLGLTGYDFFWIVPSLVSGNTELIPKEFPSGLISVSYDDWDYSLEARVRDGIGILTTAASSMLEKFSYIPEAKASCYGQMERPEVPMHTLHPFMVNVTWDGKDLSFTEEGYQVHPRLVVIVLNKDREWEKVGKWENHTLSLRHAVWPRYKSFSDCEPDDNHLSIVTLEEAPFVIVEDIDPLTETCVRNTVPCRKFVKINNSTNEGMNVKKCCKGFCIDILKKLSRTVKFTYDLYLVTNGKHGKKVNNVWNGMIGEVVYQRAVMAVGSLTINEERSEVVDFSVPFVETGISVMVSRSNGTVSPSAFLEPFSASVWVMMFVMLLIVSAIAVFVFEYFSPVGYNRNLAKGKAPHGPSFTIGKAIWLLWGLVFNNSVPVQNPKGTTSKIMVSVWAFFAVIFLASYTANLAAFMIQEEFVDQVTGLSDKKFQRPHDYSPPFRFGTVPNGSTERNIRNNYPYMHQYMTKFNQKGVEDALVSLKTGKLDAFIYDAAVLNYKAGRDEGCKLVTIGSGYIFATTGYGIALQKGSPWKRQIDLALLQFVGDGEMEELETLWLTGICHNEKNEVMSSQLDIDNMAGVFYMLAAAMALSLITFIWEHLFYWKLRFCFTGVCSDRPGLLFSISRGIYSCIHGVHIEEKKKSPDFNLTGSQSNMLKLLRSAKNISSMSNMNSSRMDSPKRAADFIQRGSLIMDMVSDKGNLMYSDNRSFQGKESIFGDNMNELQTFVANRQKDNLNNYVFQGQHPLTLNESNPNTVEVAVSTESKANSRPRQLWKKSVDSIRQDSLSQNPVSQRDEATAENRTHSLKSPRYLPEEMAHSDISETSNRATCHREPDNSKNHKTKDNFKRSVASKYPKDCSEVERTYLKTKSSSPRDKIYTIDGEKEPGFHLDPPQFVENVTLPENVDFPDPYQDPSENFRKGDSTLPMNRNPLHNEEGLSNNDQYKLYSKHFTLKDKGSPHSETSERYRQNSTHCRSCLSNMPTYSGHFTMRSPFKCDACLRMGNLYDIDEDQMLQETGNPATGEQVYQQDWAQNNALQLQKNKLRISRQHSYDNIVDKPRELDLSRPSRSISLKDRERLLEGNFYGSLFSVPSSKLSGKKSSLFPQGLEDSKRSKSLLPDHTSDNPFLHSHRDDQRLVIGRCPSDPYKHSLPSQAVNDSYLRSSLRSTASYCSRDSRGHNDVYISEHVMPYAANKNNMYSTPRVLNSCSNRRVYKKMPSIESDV
Simple rule here: EC50 less than 1000 nM is 1, otherwise 0.

QUERY: Does CCN(Cc1cc(=O)n2c(-c3ccccc3)c(C)sc2n1)c1ccc(F)cc1 [Example 5.22] have EC50 strictly under 1000 nM?
RESULT: 0

QUERY: Lab note: EC50 threshold 1000 nM. Does this compound come in strictly under it? Cc1cc(C2CC2)n(Cc2cc(=O)n3c([C@@H]4C[C@H]4CO)c(C)sc3n2)n1 (single isomer, unassigned) [Example 15.14]
RESULT: 0

QUERY: API: query returns whether the compound falls strictly under 1000 nM in EC50. Query: CCN(Cc1cc(=O)n2c([C@@H]3C[C@H]3CO)csc2n1)c1ccc(F)cc1 (relative stereo) [Example 5.28]
RESULT: 1

QUERY: Please indicate whether the reported EC50 of CNC(=O)c1c(C)sc2nc(COc3ccc(F)c(F)c3)cc(=O)n12 [Example 1.6] is strictly below 1000 nM.
RESULT: 0

QUERY: Identify whether the compound Cc1sc2nc(CN3c4ccc(F)cc4CC3C)cc(=O)n2c1-c1ccco1 (centres unmarked) [Example 5.46] records EC50 below 1000 nM.
RESULT: 0

QUERY: Please let me know if CCN(Cc1cc(=O)n2c(C3CC3)c(C)sc2n1)c1ccc(F)cc1 [Example 5.26] shows EC50 below 1000 nM.
RESULT: 1

QUERY: Is the reported EC50 for CCN(Cc1cc(=O)n2c(-c3cc(F)cc(F)c3)c(C)sc2n1)c1ccc(F)cc1 [Example 5.55] strictly below 1000 nM?
RESULT: 0

QUERY: hey, is EC50 for CCN(Cc1cc(=O)n2c(-c3ccoc3)c(C)sc2n1)c1ccc(F)cc1 [Example 5.44] lower than 1000 nM or not?
RESULT: 0
